Test system: MDA-MB-231
Assay: Cytotoxicity against human MDA-MB-231 cells by SRB assay
Type: functional, cell-based
pIC50: −log10 of the molar value.
propertyLabel: pIC50

INPUT: Find the recorded pIC50 belonging to COc1cccc2c1C(=O)c1c(O)c3c(c(O)c1C2=O)C[C@@](O)(C(=O)CO)C[C@@H]3O[C@H]1C[C@H](N)[C@H](O)[C@H](C)O1 and report it.
OUTPUT: > 6.00

INPUT: Find the recorded pIC50 belonging to COC(=O)Cc1cc(CC/C=C(\C)CC/C=C(\C)CCC=C(C)C)ccc1O and report it.
OUTPUT: < 4.52
